# System: Staphylococcus aureus ATCC43300, methicillin-resistant strain
# Protocol Details: microbe, parasite or virus in culture
# Assay type: cell-based
# Condition Summary: ATCC 43300 / MRSA; Staphylococcus aureus ATCC43300 (MRSA); read-out: MIC S. a 43300
Readout Name: MIC (µg/mL)
Provide the reading as a plain figure in µg/mL.

Exam item: Give the measured MIC of CC(=O)c1c(OCCCNCCCN2CCN(C)CC2)c2c(c3c1OC(C)(CCC=C(C)C)C=C3)OC(C)(CCC=C(C)C)C=C2 (centres unmarked) [Compound 9h] .
Marked response: 2

Exam item: Let us now turn to CC(=O)c1c(OCCC[n+]2ccccc2)c2c(c3c1OC(C)(CCC=C(C)C)C=C3)OC(C)(CCC=C(C)C)C=C2 (centres unmarked) [Compound 9b]
Marked response: 1

Exam item: Now the same for CC(=O)c1c(OCCCSC(=N)N)c2c(c3c1OC(C)(CCC=C(C)C)C=C3)OC(C)(CCC=C(C)C)C=C2 (centres unmarked) [Compound 9e]
Marked response: 64

Exam item: What about CNCCN(C)CCCOc1c2c(c3c(c1C(C)=O)OC(C)(CCC=C(C)C)C=C3)OC(C)(CCC=C(C)C)C=C2 (centres unmarked) [Compound 9f] ?
Marked response: 4

Exam item: // query: CCNCCCOc1c(C(C)=O)ccc2c1C=CC(C)(CCC=C(C)C)O2 (centres unmarked) [Compound 5b]
Marked response: 16

Exam item: Now the molecule CC(=O)c1ccc2c(c1OCCCN1CCN(C(C)=O)CC1)C=CC(C)(CCC=C(C)C)O2 (centres unmarked) [Compound 5e]
Marked response: 128

Exam item: Then what about the molecule CC[N+](CC)(CC)CCCOc1c2c(c3c(c1C(C)=O)OC(C)(CCC=C(C)C)C=C3)OC(C)(CCC=C(C)C)C=C2 (centres unmarked) [Compound 9a] ?
Marked response: 4

Exam item: What about this molecule? CC[N+](CC)(CC)CCCOc1c(C(C)=O)ccc2c1C=CC(C)(CCC=C(C)C)O2 (centres unmarked) [Compound 5a]
Marked response: 64

Exam item: Record: CCN(CC)CCCOc1c2c(c3c(c1C(C)=O)OC(C)(CCC=C(C)C)C=C3)OC(C)(CCC=C(C)C)C=C2 (centres unmarked) [Compound 9c]
Marked response: 4

Exam item: # repeat for CCN(CC)CCCOc1c(C(C)=O)ccc2c1C=CC(C)(CCC=C(C)C)O2 (centres unmarked) [Compound 5c]
Marked response: 32

Exam item: Thanks! And CC(=O)c1ccc2c(c1OCCCN(C)CC(C)(C)CN(C)C)C=CC(C)(CCC=C(C)C)O2 (centres unmarked) [Compound 5g] ?
Marked response: 8

Exam item: Moving on to the next molecule: CC(=O)c1ccc2c(c1OCCCNCCCN1CCCC1)C=CC(C)(CCC=C(C)C)O2 (centres unmarked) [Compound 5h]
Marked response: 8

Exam item: Next: CC(=O)c1ccc2c(c1OCCCNCCN(C)C)C=CC(C)(CCC=C(C)C)O2 (centres unmarked) [Compound 5f]
Marked response: 8

Exam item: Entry CCN(CC)CCCNCCCOc1c2c(c3c(c1C(C)=O)OC(C)(CCC=C(C)C)C=C3)OC(C)(CCC=C(C)C)C=C2 (centres unmarked) [Compound 9g] please
Marked response: 4

Exam item: Next record, please: O=C(O)c1cn(C2CC2)c2cc(N3CCNCC3)c(F)cc2c1=O [ciprofloxacin, reference compound]
Marked response: 0.25
